Form field: STK11 functional score (one value per entry).
B1: library; numbered along this chain (parent)
chain: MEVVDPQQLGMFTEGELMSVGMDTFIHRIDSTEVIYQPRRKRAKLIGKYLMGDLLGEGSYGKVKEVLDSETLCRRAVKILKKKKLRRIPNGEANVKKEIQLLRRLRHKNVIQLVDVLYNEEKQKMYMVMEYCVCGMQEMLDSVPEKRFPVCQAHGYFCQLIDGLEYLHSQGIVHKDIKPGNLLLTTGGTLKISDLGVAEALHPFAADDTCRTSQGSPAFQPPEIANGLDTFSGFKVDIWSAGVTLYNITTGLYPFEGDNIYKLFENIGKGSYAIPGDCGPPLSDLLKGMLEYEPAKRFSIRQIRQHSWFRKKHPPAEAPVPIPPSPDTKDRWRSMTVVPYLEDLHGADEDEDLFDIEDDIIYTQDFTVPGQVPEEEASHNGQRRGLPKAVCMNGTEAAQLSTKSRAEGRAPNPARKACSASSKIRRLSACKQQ

Variants of: B1
protocol details: STK11 functional score (HeLa growth suppression), rescaled enrichment; synonymous median = 1, nonsense median = 0 (normalised score)
measurement parameters: with HeLa; variant type: missense
// print number alone

Some solved cases for reference:
M335D = 0.605
G270M = 0.994
K64S = 1.53

Inquiry: # STK11 functional score lookup, item G233Y
Reply text: 1.04

Inquiry: # STK11 functional score lookup, item F148T
Reply text: -0.101

Inquiry: # STK11 functional score lookup, item Y246W
Reply text: 1.15

Inquiry: # STK11 functional score lookup, item I267T
Reply text: 1.11

Inquiry: # STK11 functional score lookup, item R39Q
Reply text: 0.277
